target.or.test.system: human polymerase alpha (Homo sapiens, UniProt P09884)
Construct: purchased Replizyme Ltd (Heslington, York, UK)
Sequence (P09884 whole entry): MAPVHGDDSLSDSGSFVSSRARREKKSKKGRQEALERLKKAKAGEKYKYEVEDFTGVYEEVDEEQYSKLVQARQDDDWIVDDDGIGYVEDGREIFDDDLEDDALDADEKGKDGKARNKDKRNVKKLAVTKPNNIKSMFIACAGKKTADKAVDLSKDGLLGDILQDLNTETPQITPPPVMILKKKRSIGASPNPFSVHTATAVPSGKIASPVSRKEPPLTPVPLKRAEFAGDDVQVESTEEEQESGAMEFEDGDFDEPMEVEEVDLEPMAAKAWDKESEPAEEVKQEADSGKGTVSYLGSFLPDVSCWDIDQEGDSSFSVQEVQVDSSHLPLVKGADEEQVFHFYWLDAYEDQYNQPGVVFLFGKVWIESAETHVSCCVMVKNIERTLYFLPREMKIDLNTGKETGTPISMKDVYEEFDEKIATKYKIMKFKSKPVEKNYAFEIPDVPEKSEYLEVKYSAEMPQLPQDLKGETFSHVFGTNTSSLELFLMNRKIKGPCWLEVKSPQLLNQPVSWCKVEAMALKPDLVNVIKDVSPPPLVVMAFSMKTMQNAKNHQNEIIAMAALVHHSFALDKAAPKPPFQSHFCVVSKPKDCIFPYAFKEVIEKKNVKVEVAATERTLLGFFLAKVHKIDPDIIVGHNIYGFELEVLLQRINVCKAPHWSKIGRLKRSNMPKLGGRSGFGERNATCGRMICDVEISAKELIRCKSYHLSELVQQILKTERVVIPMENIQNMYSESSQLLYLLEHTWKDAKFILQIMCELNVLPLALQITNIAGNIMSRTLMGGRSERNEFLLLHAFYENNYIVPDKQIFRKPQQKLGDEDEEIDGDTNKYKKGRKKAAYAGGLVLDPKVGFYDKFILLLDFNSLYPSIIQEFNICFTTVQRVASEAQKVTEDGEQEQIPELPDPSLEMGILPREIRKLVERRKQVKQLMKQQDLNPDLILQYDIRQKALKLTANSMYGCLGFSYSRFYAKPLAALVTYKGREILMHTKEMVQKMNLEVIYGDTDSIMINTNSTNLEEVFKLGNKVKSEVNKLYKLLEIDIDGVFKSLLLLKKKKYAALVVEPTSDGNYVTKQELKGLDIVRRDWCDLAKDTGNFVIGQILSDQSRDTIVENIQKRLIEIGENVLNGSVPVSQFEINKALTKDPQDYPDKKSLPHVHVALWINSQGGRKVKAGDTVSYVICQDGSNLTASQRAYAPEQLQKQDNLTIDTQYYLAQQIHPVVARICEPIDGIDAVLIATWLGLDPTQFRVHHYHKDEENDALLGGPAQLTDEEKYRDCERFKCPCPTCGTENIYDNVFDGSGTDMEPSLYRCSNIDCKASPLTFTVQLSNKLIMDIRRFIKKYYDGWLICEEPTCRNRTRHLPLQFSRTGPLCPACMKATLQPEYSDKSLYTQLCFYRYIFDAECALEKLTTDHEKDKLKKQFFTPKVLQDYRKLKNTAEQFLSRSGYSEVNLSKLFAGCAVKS
test.description: Human polymerase alpha inhibition (Replizyme kit)
Assay type: biochemical
stated.conditions: dose response
pIC50: −log10 of the molar value.
endpoint.label: pIC50

1 = NCCCC[C@H](NC(=O)Nc1ccc(-c2ccccc2)cc1)C(=O)Nc1ccc(C2CCCCC2)cc1 [Compound 119]
2 = Cc1ccc(NC(=O)[C@H](CCCCN)NC(=O)Nc2ccc(OCc3ccccn3)cc2)cc1 [Compound 299]
3 = Cc1ccc(NC(=O)C[C@H](CCCCN)NC(=O)Nc2ccc(OCc3ccccc3)cc2)cc1 [Compound 246]
4 = Cc1ccc(NC(=O)[C@H](CCCCN)NC(=O)Nc2ccc3c(c2)Cc2ccccc2-3)cc1 [Compound 125]
Query: List by increasing pIC50. List the labels in the requested order.
Response: 2, 3, 4, 1
(2: 4.17, 3: 5.10, 4: 5.52, 1: 5.82)

A = NCCCC[C@H](NC(=O)Nc1ccc(OCc2ccccc2)cc1)C(=O)NCc1ccco1 [Compound 302]
B = Cc1cc2cc(NC(=O)[C@H](CCCNC(=O)CN)NC(=O)Nc3ccc4c(c3)Cc3ccccc3-4)ccc2[nH]1 [Compound 297]
Query: // select label with min value of measured pIC50 from [ A , B ] Mark your selection by writing its label.
Response: A
